tested on: Bacillus subtilis; test: cleaved RNA product abundance (RNA/gDNA barcode ratio) relative to median wild-type variant (ratio to wild type); higher = more accumulation of the downstream cleavage product; details: experiment (reporter, strain, medium): exp 2b: truncated aprE reporter, strain BJT200; cleavage site: cggR-gapA (positions -7 to +36 mutated)
EXPERIMENTAL_READOUT: cleaved RNA product abundance
Give only the figure.

QUERY: State its cleaved RNA product abundance: ACAGACGAAGGAGCCGCAAAGAAGTTATTAAGAGATGAATAATCCTTCAATATAAATATCTCTCACTTATTTAAA
RESULT: 0.105

QUERY: State its cleaved RNA product abundance: ACAGACGAAGGAGCCGCAAAGAAGTTATTATGGGATGTATAATCCCTCAATATAAATATCTCTCACTTATTTAAA
RESULT: 0.31

QUERY: State its cleaved RNA product abundance: ACAGACGAAGGAGCCGCAAAGAAGTTATTAAGGGATTAATAATCCCTCAAAATAAATATCTCTCACTTATTTAAA
RESULT: 0.334

QUERY: State its cleaved RNA product abundance: ACAGACGAAGGAGCCGCAAAGAAGTTGTTAAGGGATGAATAATACCTCAATATAAATATCTCTCACTTATTTAAA
RESULT: 0.101

QUERY: State its cleaved RNA product abundance: ACAGACGAAGGAGCCGCAAAGAAGTTATTAAGGCATGAATAATTCCTCAATATAAATATCTCTCACTTATTTAAA
RESULT: 0.107

QUERY: State its cleaved RNA product abundance: ACAGACGAAGGAGCCGCAAAGAAGTTATTAACGGATGAATAATCCCTTAATATAAATATCTCTCACTTATTTAAA
RESULT: 0.98

QUERY: State its cleaved RNA product abundance: ACAGACGAAGGAGCCGCAAAGAAGTTATAAAGGGATAAATAATCCCTCAATATAAATATCTCTCACTTATTTAAA
RESULT: 0.316

QUERY: State its cleaved RNA product abundance: ACAGACGAAGGAGCCGCAAAGAAATTATTAAGGGATGAATAATGCCTCAATATAAATATCTCTCACTTATTTAAA
RESULT: 0.172

QUERY: State its cleaved RNA product abundance: ACAGACGAAGGAGCCGCAAAAAAGTTATTAAGGGATGTATAATCCCTCAATATAAATATCTCTCACTTATTTAAA
RESULT: 1.06

QUERY: State its cleaved RNA product abundance: ACAGACGAAGGAGCCGCAAAGAAGTAATTAAGGGAAGAATAATCCCTCAATATAAATATCTCTCACTTATTTAAA
RESULT: 0.117

QUERY: State its cleaved RNA product abundance: ACAGACGAAGGAGCCGCAAACAAGTTATTAAGGGATTAATAATCCCTCAATATAAATATCTCTCACTTATTTAAA
RESULT: 1.02

QUERY: State its cleaved RNA product abundance: ACAGACGAAGGAGCCGCAAAGAAGTTATTAAAGGATGAATAATCCATCAATATAAATATCTCTCACTTATTTAAA
RESULT: 0.141

QUERY: State its cleaved RNA product abundance: ACAGACGAAGGAGCCGCAAAGAAGTTATTAAGGGATGAATAAACCCTCAATATAGATATCTCTCACTTATTTAAA
RESULT: 0.365

QUERY: State its cleaved RNA product abundance: ACAGACGAAGGAGCCGCAAATAAGTTATTAAGGGATGAATAATCCCTCAAAATAAATATCTCTCACTTATTTAAA
RESULT: 0.34

QUERY: State its cleaved RNA product abundance: ACAGACGAAGGAGCCGCAAAGAAGTTATTAAAAGATTAATAATCCCTCAATATAAATATCTCTCACTTATTTAAA
RESULT: 0.104
